- Test Description: Cytotoxicity against african green monkey Vero cells after 72 hrs by MTT assay
- Assay type: cell-based
- Condition: chlorocebus sabaeus
Reported Metric: CC50 at 72 h
// return the numeric value with its unit appended

Record request: CC50 at 72 h value, item CCCCOc1ccc(NC(=O)NCCNc2ccnc3cc(Cl)ccc23)cc1
5 µM

---

Can you tell me pIC50 for the items I'm about to list?
- Test system: Trypanosoma cruzi
- Test Description: Antimicrobial activity against epimastigotes form of Trypanosoma cruzi MHOM/MX/1994/Ninoa after 72 hrs
- Format: functional, organism-based
Entry type: numeric. Quantity: pIC50, the -log10 of concentration in molar units.

Record request: pIC50 value, item O=C(Cn1ccnc1[N+](=O)[O-])NCc1ccccc1 [BENZNIDAZOLE]
4.46

Record request: pIC50 value, item CCCCOc1ccc(NC(=O)NCCNc2ccnc3cc(Cl)ccc23)cc1
4.30

Record request: pIC50 value, item O=C(NCCNc1ccnc2cc(Cl)ccc12)Nc1ccc([N+](=O)[O-])cc1
4.30

Record request: pIC50 value, item CCOc1ccc(NC(=O)NCCNc2ccnc3cc(Cl)ccc23)cc1
4.30

Record request: pIC50 value, item O=C(NCCNc1ccnc2cc(Cl)ccc12)Nc1ccc(Cl)cc1
4.30
